biological target: AMA1 on P. falciparum 3D7 strain parasites (Plasmodium falciparum); test: cell-based or functional assay
measurement.type: IC30 concentration (30% inhibition against the 3D7 target parasites, GIA) (µg/mL)
Write down the numeric answer in µg/mL and omit the unit.

QUERY: Query IC30 concentration (30% inhibition against the 3D7 target parasites, GIA) for monoclonal antibody 4E8 (antibody, V domains shown) VH: EVQLQESGPGLVQPSQSLSITCTVSDFSLIMYGVHWVRQSPGKGLEWLGVIWSGGSTDYNAAFISRLSISKDNSKSQVFFKMNSLQADDTAIYYCARNNGYYVDAMDYWGQGTSVTVSS VL: DVVMTQTPLSLPVSLGDQASISCRSSQSLVHNNGNTYLHWYLQKPGQSPKLLIYKVSNRFFGVPDRFSGSGSGTDFTLKISRVEAEDLGVYFCSQSTHVPTFGGGTKLEIKR
RESULT: 150
